- TESTED SYSTEM: recombinant human TFPI (tissue factor pathway inhibitor) (human, UniProt P10646 29-304)
- PROCEDURE DETAILS: cell-based or functional assay
MEASURE: % of Normalized, TF/FVIIa/FX complex assay (FX 5 nM), Ab 6.25 nM (%)
// units = %; emit number, no label

Identify measured % of Normalized, TF/FVIIa/FX complex assay (FX 5 nM), Ab 6.25 nM associated with clone 2 (antibody, V domains shown) VH: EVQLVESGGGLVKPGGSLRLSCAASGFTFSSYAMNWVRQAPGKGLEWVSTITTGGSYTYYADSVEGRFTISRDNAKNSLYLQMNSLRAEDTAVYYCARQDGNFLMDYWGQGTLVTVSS VL: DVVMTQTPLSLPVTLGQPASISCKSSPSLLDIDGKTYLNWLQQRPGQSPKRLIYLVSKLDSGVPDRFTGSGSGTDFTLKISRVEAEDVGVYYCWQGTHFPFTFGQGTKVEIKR
6.4

Fill in % of Normalized, TF/FVIIa/FX complex assay (FX 5 nM), Ab 6.25 nM for record clone 8 (antibody, V domains shown) VH: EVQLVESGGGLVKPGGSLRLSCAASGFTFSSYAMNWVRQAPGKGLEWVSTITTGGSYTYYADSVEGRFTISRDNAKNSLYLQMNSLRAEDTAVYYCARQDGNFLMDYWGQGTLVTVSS VL: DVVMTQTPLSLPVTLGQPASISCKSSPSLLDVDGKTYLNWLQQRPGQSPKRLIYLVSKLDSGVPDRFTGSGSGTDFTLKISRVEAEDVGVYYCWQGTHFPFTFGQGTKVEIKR
6.4

Indicate its recorded % of Normalized, TF/FVIIa/FX complex assay (FX 5 nM), Ab 6.25 nM; the binder in question is clone 1023 (antibody, V domains shown, scFv on yeast at selection; human IgG4/kappa IgG as purified) VH: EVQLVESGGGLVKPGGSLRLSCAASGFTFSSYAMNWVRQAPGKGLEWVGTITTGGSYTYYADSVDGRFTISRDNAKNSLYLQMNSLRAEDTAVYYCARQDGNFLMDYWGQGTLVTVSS VL: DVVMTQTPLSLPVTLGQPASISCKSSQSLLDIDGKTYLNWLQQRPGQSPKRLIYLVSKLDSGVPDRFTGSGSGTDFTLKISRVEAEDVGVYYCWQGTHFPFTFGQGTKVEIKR
6.9
